Each entry below lists one item and its recorded protein stability index value.
B1: RHOBTB3 (parent)
chain: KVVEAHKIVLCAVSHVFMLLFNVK

Variants of: B1
Experiment: protein stability index of a GFP-peptide fusion (GPS, HEK-293T) (PSI 1-6); higher = more stable;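 further: lentivirally expressed fusions sorted by FACS into six bins by GFP to DsRed ratio, PSI derived from sequencing read proportions per bin multiplied by bin number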
Settings: c terminus: a fixed tail appended
Would you mind answering with just the numeric figure?

Some entries whose results are on file:
>>> observed("L20S")
2.6
>>> observed("S14P")
2.55
>>> observed("A12H")
2.83
>>> observed("V3M")
3.1
>>> observed("I8Y")
1.88

Using the record for `L19T` , report its protein stability index.
3.4

Report protein stability index for `L10F` please.
2.66

Fill blank: measured protein stability index of the variant `K7N` is ____.
2.31

Source of measurements: the supplement of paper PMC10567573
